Molecular target: human nAChRα6-α3 chimera, in addition to β2 and β3^V273S subunits (Homo sapiens, UniProt P32297+Q15825)
Construct: expressed in transfected cells
Sequence (Q05901 25-458 V273S): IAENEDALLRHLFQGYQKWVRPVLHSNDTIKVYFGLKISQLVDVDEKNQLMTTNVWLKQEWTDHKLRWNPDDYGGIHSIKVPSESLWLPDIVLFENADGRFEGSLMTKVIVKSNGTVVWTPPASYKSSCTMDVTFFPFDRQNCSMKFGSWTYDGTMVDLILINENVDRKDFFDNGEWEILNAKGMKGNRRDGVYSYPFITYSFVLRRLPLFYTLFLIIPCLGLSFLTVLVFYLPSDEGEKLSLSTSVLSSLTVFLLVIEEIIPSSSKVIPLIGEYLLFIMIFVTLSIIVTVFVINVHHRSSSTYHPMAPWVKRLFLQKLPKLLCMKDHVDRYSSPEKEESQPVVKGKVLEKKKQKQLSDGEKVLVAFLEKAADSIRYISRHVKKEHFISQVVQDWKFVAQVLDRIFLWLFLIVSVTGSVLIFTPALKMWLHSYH
Sequence (P17787 26-502, stated change not applied, further chain): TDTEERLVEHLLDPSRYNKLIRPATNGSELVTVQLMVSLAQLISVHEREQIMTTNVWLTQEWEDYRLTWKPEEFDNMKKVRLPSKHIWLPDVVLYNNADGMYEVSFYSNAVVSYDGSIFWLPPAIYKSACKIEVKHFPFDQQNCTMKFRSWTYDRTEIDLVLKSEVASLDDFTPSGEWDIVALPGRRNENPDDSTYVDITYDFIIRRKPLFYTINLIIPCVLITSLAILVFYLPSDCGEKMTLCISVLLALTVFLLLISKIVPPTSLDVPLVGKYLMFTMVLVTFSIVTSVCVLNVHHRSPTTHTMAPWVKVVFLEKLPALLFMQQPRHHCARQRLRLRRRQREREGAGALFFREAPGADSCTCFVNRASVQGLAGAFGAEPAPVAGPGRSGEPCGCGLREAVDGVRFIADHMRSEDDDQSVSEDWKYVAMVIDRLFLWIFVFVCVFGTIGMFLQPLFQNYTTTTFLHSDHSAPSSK
Sequence (Q15825+P32297 fused with the stated changes): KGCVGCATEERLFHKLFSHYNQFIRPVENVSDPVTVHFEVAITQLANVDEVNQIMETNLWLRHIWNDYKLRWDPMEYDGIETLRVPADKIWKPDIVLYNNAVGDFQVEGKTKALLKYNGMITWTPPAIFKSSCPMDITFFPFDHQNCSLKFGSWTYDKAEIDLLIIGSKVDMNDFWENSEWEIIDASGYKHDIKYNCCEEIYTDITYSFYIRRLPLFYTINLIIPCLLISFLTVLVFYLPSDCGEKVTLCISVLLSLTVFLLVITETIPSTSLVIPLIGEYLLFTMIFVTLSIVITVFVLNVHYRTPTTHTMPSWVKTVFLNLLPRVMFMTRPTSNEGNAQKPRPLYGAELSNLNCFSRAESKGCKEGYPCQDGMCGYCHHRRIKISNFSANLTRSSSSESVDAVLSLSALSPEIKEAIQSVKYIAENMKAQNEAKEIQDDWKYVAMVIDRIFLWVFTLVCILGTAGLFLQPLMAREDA
Assay: fluorescence-based calcium assay: inhibition of nicotine stimulated nAChRα6 activity (FLIPR)
Conditions: HEK cell line stably expressing the receptor; 10 min pre-incubation, nicotine EC80; 10-point curve, duplicate wells; read-out: IC50
pIC50: −log10 of the molar value.
Listing of recorded pIC50 by entry.

[
  {
    "compound": "CN1CCC(Nc2ncc(-c3ccc(F)cc3F)c(C#N)n2)CC1 [Example 66]",
    "pIC50": 7.03
  },
  {
    "compound": "Cc1nc(NC[C@H]2NCC[C@@H]2F)ncc1-c1ccc(C(F)(F)F)cc1F (single isomer, unassigned) [Example 133b]",
    "pIC50": 6.52
  },
  {
    "compound": "COc1ccc(-c2cnc(NCC3CCCO3)nc2C)c(Cl)c1 (centres unmarked) [Example 47]",
    "pIC50": 5.90
  },
  {
    "compound": "COc1ccc(-c2cnc(NC3CCC(N(C)C)C3)nc2C)c(F)c1 (single isomer, unassigned) [Example 44a]",
    "pIC50": 7.12
  },
  {
    "compound": "Cc1nc(NCC2CCCN2)ncc1-c1ccc(F)cc1F (centres unmarked) [Example 82]",
    "pIC50": 7.74
  },
  {
    "compound": "[2H]C([2H])([2H])N1CCC[C@H]1CNc1ncc(-c2ccc(F)cc2F)c(C)n1 [Example 90a]",
    "pIC50": 6.68
  },
  {
    "compound": "Cc1nc(N[C@@H]2CN3CCC2CC3)ncc1-c1ccc(C(F)(F)F)cc1F [Example 120]",
    "pIC50": 6.75
  },
  {
    "compound": "Cc1nc(N[C@@H]2CCNC2)ncc1-c1ccc(C(F)(F)F)cc1F [Example 110]",
    "pIC50": 7.27
  },
  {
    "compound": "Cc1nc(NCC2CCC(C)N2C)ncc1-c1ccc(C(F)(F)F)cc1F (single isomer, unassigned) [Example 138c]",
    "pIC50": 7.16
  },
  {
    "compound": "Cc1nc(N[C@@H]2CNC[C@H]2O)ncc1-c1ccc(C(F)(F)F)cc1F [Example 115]",
    "pIC50": 6.92
  },
  {
    "compound": "CN(C)C1CCC(Nc2ncc(-c3ccc(F)cc3F)c(C#N)n2)C1 (single isomer, unassigned) [Example 58b]",
    "pIC50": 7.25
  },
  {
    "compound": "Cc1nc(NCC2N(C)CCC2(F)F)ncc1-c1ccc(F)cc1F (single isomer, unassigned) [Example 84b]",
    "pIC50": 5.78
  },
  {
    "compound": "Cc1nc(NC2CCCC(N(C)C)C2)ncc1-c1ccc(F)cc1F (single isomer, unassigned) [Example 55a]",
    "pIC50": 7.01
  },
  {
    "compound": "Cc1nc(NCC2NCCC2(F)F)ncc1-c1ccc(F)cc1F (single isomer, unassigned) [Example 83a]",
    "pIC50": 5.94
  },
  {
    "compound": "CCN1CCCC1CNc1ncc(-c2ccc(C(F)(F)F)cc2F)c(C)n1 (centres unmarked) [Example 98]",
    "pIC50": 7.17
  },
  {
    "compound": "CN(C)C1CCC(Nc2ncc(-c3ccc(F)cc3F)c(C#N)n2)C1 (single isomer, unassigned) [Example 58a]",
    "pIC50": 7.42
  },
  {
    "compound": "Cc1nc(NCC2CCCN2C)nnc1-c1ccc(F)cc1F (single isomer, unassigned) [Example 74a]",
    "pIC50": 6.16
  },
  {
    "compound": "Cc1nc(NC[C@]2(C)CCCN2)ncc1-c1ccc(C(F)(F)F)cc1F [Example 134]",
    "pIC50": 7.00
  },
  {
    "compound": "CCN1CCC[C@H](Nc2ncc(-c3ccc(F)cc3F)c(C)n2)C1.O=C(O)/C=C/C(=O)O (single isomer, unassigned) [Example 78b]",
    "pIC50": 7.22
  },
  {
    "compound": "Cc1nc(NC(=O)[C@H]2CCCN2C)ncc1-c1ccc(C(F)(F)F)cc1F [Example 139]",
    "pIC50": 7.07
  }
]
